- System: healthy subjects
- Test protocol: Safety and tolerability (AEs, ECG, hs-troponin I) after single ascending doses in healthy volunteers
- Type: in vivo, human
- Protocol conditions: 525 mg, 6 hours postdose; upper limit of normal 15
Quantity kind: hs-troponin I concentration, one subject
Quick note: number first, unit second.

Input: Item "Cn1cc(S(=O)(=O)[C@@](C)(F)C2CCN(C(=O)Nc3ccon3)CC2)c(C(F)F)n1" has what recorded hs-troponin I concentration, one subject?
Output: 16 ng/L
